Origin of measurements: ChEMBL document CHEMBL1201862

- System: M14
- test name: NCI tumour cell line growth inhibition, 48 h
Activity calls are given as the source filed them. Cut-off read from the data, not from the text of the source: active = GI50 up to about 1.1 µM and inactive = higher.
Result category, one only: active, inactive

Some solved cases for reference:
molecule	assigned class
O=C(O)c1c2c(cc3c(=O)cc(-c4ccccc4)oc13)CCCC2	inactive
CCOC(=O)NN1C(=O)C(=P(c2ccccc2)(c2ccccc2)c2ccccc2)C(C(=O)OCC)=C1C	inactive
CN(C)c1ccc(C=c2c3ccccc3n3c2c2c([n+]3C)CCCC2)cc1	active
CN(C)c1ccc(/C=C/c2ccc3ccccc3[n+]2C)cc1	inactive
C=CCNC(=S)N/C=C(/C(C)=O)C(=O)Nc1ccccc1C	inactive
CC(C)CCC/C(CBr)=C(\Cl)CCl	inactive
CO/N=C(\C)CCC#Cc1ccccc1C(=O)OC	inactive
[N-]=[N+]=NC1(N=[N+]=[N-])C(=O)NN=C(c2ccccc2)C1=O (configuration not stated)	inactive
O=C(O[C@H]1[C@@H](O)[C@H](n2cnc3c(Cl)ncnc32)O[C@@H]1COC(c1ccccc1)(c1ccccc1)c1ccccc1)c1ccccc1	inactive
COc1ccc2[nH]cc(CCNC(=O)[C@H](Cc3ccccc3)NC(=O)[C@@H](NCC(F)(F)F)C(C)C)c2c1	inactive

q: Which outcome did this test record for the molecule Cc1ccc(NC(=O)/C(C#N)=C/c2ccccc2)c(C)c1 ?
a: inactive

q: # outcome recorded in this test, key = CS/C(=N\C(=S)N(C)C)N(c1ccccc1)c1nc(N(C)C)s[s+]1
a: inactive

q: Outcome? O=C1C(Cl)=C(N2C(=O)CCCC2=O)C(=O)c2ccccc21
a: inactive

q: Given c1ccc(CCNc2ccccn2)nc1 , state the outcome it received in this test.
a: inactive

q: Name the outcome recorded for C/C(=N\N=C(/S)SCc1ccccc1)c1ccccn1 in the assay.
a: active

q: Fill in: this test's call for COC(=O)CNC(=O)Nc1cc(N2C(=O)ON3C2C(C)(C)N(O)C3(C)C)ccc1C (configuration not stated) is ___
a: inactive

* * *

- Tested on: SF-295
- test name: NCI tumour cell line growth inhibition, 48 h
Activity calls are given as the source filed them. No stated cut-off is given here; in the data, active = GI50 up to about 1.1 µM and inactive = higher.
Just give me one of these, please: active, inactive

q: Field: outcome | Entry: c1ccc(CCNc2ccccn2)nc1
a: inactive

q: Short answer needed: outcome of this test for COc1c(O)cc(O)c2c(=O)cc(-c3ccccc3)oc12 ?
a: inactive

q: What did the test return for O=C1Nc2ccc(Br)cc2/C1=N/Nc1ccc([N+](=O)[O-])cc1 ?
a: inactive

q: Test call for this compound, please: COc1cc2c3c(c1OC)-c1ccccc1C(C(O)c1ccccc1)C3N(C)CC2 (centres undefined)
a: inactive

q: Dear colleague, could you share the recorded outcome for O=C1NC(N2CCCCC2)=N/C1=C\c1ccccc1 when you have a moment?
a: inactive

* * *

Recorded GI50 for the following molecules
- Test system: SK-MEL-28
- test name: NCI tumour cell line growth inhibition, 48 h
Calls of active or inactive are those of the source. Cut-off read from the data, not from the text of the source: active = GI50 up to about 1.1 µM and inactive = higher.

molecule	GI50
O=C1OC(c2ccccc2)=N/C1=C/c1cccs1	> 100 µM (inactive)
CCOc1ccc2c(c1)[n+]([O-])c(-c1ccccc1Cl)c(N)[n+]2[O-]	> 100 µM (inactive)
Cc1cc2nc3ccc(N(C)C)cc3[s+]c2cc1N [TOLONIUM CHLORIDE]	13.6 µM (inactive)
CC1(C)CCC[C@]2(C)[C@@H]1CC[C@@]13O[C@@H]1C1=C(CO)C(=O)OC1=C[C@@H]23	16.6 µM (inactive)

q: # input molecule: c1ccc2c3c(c(N4CCOCC4)nc2c1)CCCC3 ; wanted: its GI50
a: 85.1 µM (inactive)

* * *

- Test system: HCT-116
- test name: NCI tumour cell line growth inhibition, 48 h
Activity calls are given as the source filed them. Rule as the data show it: active = GI50 up to about 1.1 µM and inactive = higher.
Outcomes you can answer with include only these: TRUE for active, FALSE for inactive

molecule	assigned class
O=C(O)CNn1c(SCC(=O)O)nnc(/C=C/c2c(O)ccc3ccccc23)c1=O	FALSE

q: Would you mind telling me which call this test gave Cc1cn(C2CC(/[N+]([O-])=N\Nc3ccc([N+](=O)[O-])cc3)C(CO)O2)c(=O)[nH]c1=O (stereo not given) ?
a: FALSE

q: Status in this test for O=C(O)C(Cl)(c1ccccc1)c1ccccc1 ?
a: FALSE

q: What is the recorded call for this molecule in the test? N#Cc1c(-c2ccccc2)cc(-c2ccccc2)n(C2OCC(O)C(O)C2O)c1=S (stereo not given)
a: FALSE

q: Status in this test for O=C(Nc1ccccc1C(=O)O)C(=Cc1ccccc1O)NC(=O)c1ccccc1 ?
a: FALSE

q: Please share the test call associated with Clc1ccc(-c2nc(-c3ccc(Cl)cc3)[s+]s2)cc1 .
a: FALSE

q: What classification did N=C(N)NS(=O)(=O)c1ccc(Nc2c3ccccc3nc3c(C(=O)N4CCN(CCO)CC4)cccc23)cc1 end up with in this test?
a: FALSE

q: Identify the outcome logged in this assay for the molecule shown: N#Cc1ccc(OC(=O)c2ccc(NC(=N)N)cc2)cc1.c1ccncc1
a: FALSE

q: Called result for O=C(CSc1c2ccccc2nc2ccccc12)Nc1ccccc1-c1ccccc1NC(=O)CSc1c2ccccc2nc2ccccc12
a: FALSE

q: Give the logged outcome of this assay for the following molecule: Nc1ccc(/C=C/c2ccc3cccnc3c2)cc1
a: FALSE

q: How was CN(C)CCc1ccc(Cl)cc1Cl classified in this test?
a: FALSE

* * *

- System: LOX IMVI
- test name: NCI tumour cell line growth inhibition, 48 h
Calls of active or inactive are those of the source. No stated cut-off is given here; in the data, active = GI50 up to about 1.1 µM and inactive = higher.
recorded metric: GI50

Below are worked cases with known answers.
compound	GI50
CCOC(=O)NN1C(=O)C(=P(c2ccccc2)(c2ccccc2)c2ccccc2)C(C(=O)OCC)=C1C	> 100 µM (inactive)
O=C(Nc1cc(Cl)c(Cl)cc1Cl)C(=O)C(C(=O)c1ccc2ccccc2c1)C1OC(=O)c2ccccc21 (centres undefined)	15.5 µM (inactive)
CCOC(=O)C1Nc2ccccc2[C@H]2OCC[C@@H]12 (some centres undefined)	> 100 µM (inactive)
C=CCNC(=S)N/C=C(/C(C)=O)C(=O)Nc1ccccc1C	> 100 µM (inactive)
O=C1Oc2ccccc2C(=O)/C1=C/NC(=S)NCCc1ccccc1	42.9 µM (inactive)

q: Which GI50 is listed for O=c1[nH]c(Nc2ccc(Br)c(C(F)(F)F)c2)nc2[nH]cnc12 ?
a: 39.1 µM (inactive)

q: What does the data say about its GI50? Entry: Nc1nc(S)nc2snnc12
a: > 100 µM (inactive)

q: # get_value(readout='GI50', item= CC(C)CCC/C(CBr)=C(\Cl)CCl )
a: 0.0728 µM (active)

* * *

- System: HCT-116
- test name: NCI tumour cell line growth inhibition, 48 h
Calls of active or inactive are those of the source. Cut-off read from the data, not from the text of the source: active = GI50 up to about 1.1 µM and inactive = higher.
Reply using exactly one outcome from TRUE for active, FALSE for inactive

q: State the result this test recorded for O=C1CNNC(Cn2nc(-c3ccccc3)c3ccccc3c2=O)=N1 .
a: FALSE

q: Fill in: this test's call for N#C/N=C(/N)NCO is ___
a: FALSE

q: For CCSCCCC(=O)O , which call appears in the assay record?
a: FALSE

q: Test call, this molecule: CC1(c2cc3c(cc2Br)OCO3)SCCCS1
a: FALSE

q: Check the results log: what was the call for C=C1c2ccccc2N(S(=O)(=O)c2ccc(C)cc2)C12CCCCC2 ?
a: FALSE

q: Write down the call the test reported for this molecule. Item: [N-]=[N+]=NC1(N=[N+]=[N-])C(=O)NN=C(c2ccccc2)C1=O (stereo unspecified)
a: FALSE

* * *

- Tested on: MDA-N
- test name: NCI tumour cell line growth inhibition, 48 h
The source made the active and inactive calls. Cut-off read from the data, not from the text of the source: active = GI50 up to about 1.1 µM and inactive = higher.
One label from this list, please: true (active), false (inactive)

q: Status in this test for O=C1Oc2ccccc2C(=O)/C1=C/NC(=S)NCCc1ccccc1 ?
a: false

q: I would be grateful if you could indicate the recorded call for COc1ccc(NC(=O)CC(=O)N2N=C(C)C(/N=N/c3ccc(C(=O)O)cc3)C2=O)cc1 (stereo not drawn) .
a: false

q: What classification did Cc1csc(-n2c(C)nc3cc(Cl)ccc3c2=O)n1 end up with in this test?
a: false

* * *

- Tested on: SK-OV-3
- test name: NCI tumour cell line growth inhibition, 48 h
The source made the active and inactive calls. Cut-off read from the data, not from the text of the source: active = GI50 up to about 1.1 µM and inactive = higher.
Quick reference: GI50 of the listed items.

molecule	test target	GI50
COc1ccc2nc(C)cc(NCCCCCCCCCNc3cc(C)nc4ccc(OC)cc34)c2c1	SK-OV-3	8.79 µM (inactive)
C/C(=N\N=C(/S)SCc1ccccc1)c1ccccn1	SK-OV-3	< 0.01 µM (active)

q: May I ask what GI50 has been recorded for CC(=O)O[C@H]1CC2C(C3CCC(C(C)CCC(N)=O)[C@]31C)[C@H](OC(C)=O)C[C@@H]1CC3(CC[C@]21C)OOC1(CC[C@]2(C)C4C[C@H](OC(C)=O)[C@]5(C)C(C(C)CCC(N)=O)CCC5C4[C@H](OC(C)=O)C[C@@H]2C1)OO3 (some centres undefined) ?
a: 2.06 µM (inactive)

q: # query: GI50 of entry Cc1cc(O)c2c(c1)C(=O)c1cc(O)cc(O)c1C2=O [EMODIN]
a: 30.7 µM (inactive)
